Where these numbers come from: the METLIN SMRT retention time set (Domingo-Almenara et al. 2019)

Measurement protocol: gradient 5% acetonitrile 3 min, to 50% in 2 min, to 85% in 15 min, held 3 min, 100 µL/min
Experimental conditions: column: Zorbax Extend-C18 2.1 x 50 mm; eluents: water / acetonitrile, 0.1% formic acid
Assay readout: RP-LC retention time (s)

{"columns": ["Molecule", "Assay readout", "Result number"],
 "data": [
  ["Cc1ccc(S(=O)(=O)N2CCN(CCc3cn(C)c4ncccc34)CC2)cc1Cl", "RP-LC retention time", 686],
  ["COc1cccc(N2CCN(S(=O)(=O)c3cc(-c4nnc(C5CCC5)o4)co3)CC2)c1", "RP-LC retention time", 1060],
  ["Fc1cccc(-c2nc(-c3ccc4c(c3)ncn4CCN3CCCC3)no2)c1", "RP-LC retention time", 634],
  ["CCOC(=O)c1nc(NCc2ccc(CC)cc2)c2ccccc2n1", "RP-LC retention time", 869],
  ["Cn1cc(C(=O)N2CCCCCCNC(=O)[C@@H]3CCC[C@@H]32)cn1", "RP-LC retention time", 622],
  ["O=c1ccc(-c2ccccc2)nn1CCc1nc(-c2ccc3c(c2)OCO3)no1", "RP-LC retention time", 900],
  ["COc1ccc2cc1Oc1ccc(cc1)CC1c3c(cc(OC)c4c3Oc3cc5c(cc3O4)CCNC5C2)CCN1C (centres undefined)", "RP-LC retention time", 601],
  ["O=C(C1CC(=O)N(C2CCCC2)C1)N1CCC(c2c[nH]c3ccccc23)(c2c[nH]c3ccccc23)CC1 (centres undefined)", "RP-LC retention time", 850],
  ["COc1cc(NC(=O)N2CCCC(C)(C(=O)NCc3ccc(F)cc3)C2)cc(OC)c1OC (centres undefined)", "RP-LC retention time", 778],
  ["COCCN1C(=O)[C@H]2CN(Cc3ccc(C(C)C)cc3)C[C@H]2C1=O", "RP-LC retention time", 674],
  ["CCCS(=O)(=O)N1CC(=O)N(c2cccc(Cl)c2C)C(C)(C(=O)NC2CCCCC2)C1 (centres undefined)", "RP-LC retention time", 1010],
  ["O=C(NCc1cc(F)ccc1F)c1cn2c(n1)CCCC2", "RP-LC retention time", 601],
  ["Cc1cc2nn(CC(=O)Nc3ccc(C)c(F)c3)c(=O)n2c(N2CCCC2)n1", "RP-LC retention time", 805],
  ["CC(=O)N1CCN(c2nc(C)cc(N3CCCC3)n2)CC1", "RP-LC retention time", 580],
  ["COc1cc(OC)cc(C(=O)N2C[C@@H]3C[C@H]2C[C@@H]3NC(=O)c2ccccc2)c1", "RP-LC retention time", 732],
  ["COc1ccc(CNC2=NCCNC23CCN(S(=O)(=O)c2ccc(C(C)(C)C)cc2)CC3)cc1", "RP-LC retention time", 844],
  ["CCCCNC(=O)Cc1c(OC)ccc2cc(Br)ccc12", "RP-LC retention time", 947],
  ["Cc1cc(C(F)F)n2nc(C(=O)N3CCCC3c3ccc(F)cc3)nc2n1 (centres undefined)", "RP-LC retention time", 808],
  ["COc1cc(OC)c(NC(=O)N2c3ccccc3CC2c2nc(C3CC3)no2)cc1Cl (centres undefined)", "RP-LC retention time", 1120]
]}

###

Measurement protocol: gradient 5% acetonitrile 3 min, to 50% in 2 min, to 85% in 15 min, held 3 min, 100 µL/min
Experimental conditions: column: Zorbax Extend-C18 2.1 x 50 mm; eluents: water / acetonitrile, 0.1% formic acid
# maps each entry to its RP-LC retention time

{"columns": ["Compound", "RP-LC retention time, s"],
 "data": [
  ["CCN(c1ccccc1)S(=O)(=O)c1ccc2[nH]c(=O)[nH]c2c1", 655],
  ["O=C(NCc1nc(-c2ccc3oc(-c4ccccc4)nc3c2)no1)c1ccccc1", 1010],
  ["O=C(Cc1nnc2cc(-c3nc(C4CC4)no3)ccn12)Nc1ccc(Cl)cc1", 816],
  ["Nc1ccc(N2C(=O)c3ccccc3C2=O)c(Cl)c1", 884],
  ["COc1ccc(N2CCN(C(=O)c3cn4nc(OC)ccc4n3)CC2)cc1", 683],
  ["O=C(Cc1c(F)cccc1Cl)N1C[C@@H]2C[C@H]1C[C@@H]2NS(=O)(=O)c1ccccc1", 852],
  ["COCCNC(=O)c1c(C)oc2ccn(Cc3ccc(F)cc3)c(=O)c12", 837],
  ["Cc1cc(Nc2ccc(NC(=O)c3ccc4c(c3)OCO4)cc2)nc(N2CCOCC2)n1", 656],
  ["Cc1oc2c(c1C(=O)Nc1ccc3c(c1)OCO3)C1=NC(C)(C)CN1C=N2", 665],
  ["O=C1NCCCn2cc(S(=O)(=O)NC3CCCCCC3)cc21", 688],
  ["CCc1nnc2cc(N3CCN(C(=O)c4ccc(OC)cc4)CC3)cnn12", 615],
  ["COc1ccc(S(=O)(=O)N2C[C@@H]3C[C@H](NC(=O)c4ccccc4)[C@H]2C3)cc1Cl", 907],
  ["O=C(Cc1ccc(Cl)cc1)NCC1CCN(C2CCCC2)CC1", 566],
  ["CC(C)n1c(N2CCCN(C(=O)COc3ccc(Cl)cc3)CC2)cc(=O)n(C(C)C)c1=O", 914],
  ["Cc1cc(OCC(=O)NCc2ccco2)nc(-c2ccc(Cl)cc2)n1", 1000],
  ["CN(CCc1noc(-c2ccc(Cl)cc2)n1)C(=O)NCc1ccccc1", 932],
  ["O=C(Cn1cccc1-c1nc(-c2ccccc2)no1)N1CCCc2ccccc21", 1210],
  ["COC(=O)c1ccc2c(=O)n(-c3ccc(Cl)cc3)c(N3CCN(C4CCCCC4)CC3)nc2c1", 754],
  ["COc1cc(OC)cc(C(=O)N2CCC3(CC2)NC(=O)c2ccc(Cl)cc2N3)c1", 742],
  ["COc1ccc(NS(=O)(=O)c2cn(CC(C)C)c3ncccc23)cc1Cl", 950],
  ["CCC(C)NC(=O)NC1CCN(C2=NS(=O)(=O)C(c3ccc(C)cc3)=C2C)CC1 (stereo not drawn)", 822],
  ["Nc1nc(SCc2ccccc2Cl)c2ncn(C3OC(CO)C(O)C3O)c2n1 (stereo not drawn)", 672],
  ["Cc1ccc(-c2nc(C3CC(=O)N(c4ccc(F)c(Cl)c4)C3)no2)cc1C (stereo not drawn)", 1090],
  ["Cc1oc(-c2[nH]ncc2C(=O)N(C)C)cc1S(=O)(=O)NC(C)C", 600],
  ["CC1=C(c2ccc(F)cc2)S(=O)(=O)N=C1N1CCCN(C(=O)C(C)(C)C)CC1", 814],
  ["O=C(NCC(c1ccco1)N1CCOCC1)c1cc(-c2ccc3c(c2)CCCC3)on1 (stereo not drawn)", 827],
  ["O=C(NCc1ccccc1F)C1CCCN(c2nc3ccsc3c(=O)n2Cc2ccccc2)C1 (stereo not drawn)", 943],
  ["CCC(Sc1ncnc2c1cnn2-c1ccc(F)cc1)C(=O)OC (stereo not drawn)", 1170],
  ["CC(C)(C)CC(=O)N1CCCC(C(=O)N2CCOCC2)C1 (stereo not drawn)", 673],
  ["CN(Cc1nc2ccccc2n1Cc1ccc(F)cc1)C(=O)c1ccco1", 714],
  ["COc1ccc(Cn2cccc2-c2nc(C)no2)cc1", 1020],
  ["CCOC(=O)c1c(S(=O)(=O)N2CCC(C(=O)NCc3ccc(F)cc3)CC2)c(C)n(CC)c1C", 835],
  ["Cc1cccc(-c2nnc(-c3cccc(S(=O)(=O)N4CCC(C)CC4)c3)o2)c1", 1220],
  ["COc1ccc(N2C(=O)C3N=NN(Cc4nc(-c5ccccc5C)no4)C3C2=O)cc1 (stereo not drawn)", 976],
  ["COc1cc(OC)c(NC(=O)N2CCN(c3ccc(=O)n(-c4ccc(C)cc4)n3)CC2)cc1Cl", 877],
  ["CCCN1CC[C@@H]2c3cc(O)ccc3CC[C@@H]21", 593],
  ["CCN1C(=O)c2cc(C(=O)NCc3ccc(F)cc3)nn2CC1(C)C(=O)NC1CCCC1 (stereo not drawn)", 734],
  ["COc1ccc(-c2noc(C3CCCN3C(=O)c3ccc(Cl)cc3)n2)cc1OC (stereo not drawn)", 959]
]}
